Biological target: recombinant human PAD4 (human, UniProt Q9UM07 1-663)
Sequence (Q9UM07 whole entry): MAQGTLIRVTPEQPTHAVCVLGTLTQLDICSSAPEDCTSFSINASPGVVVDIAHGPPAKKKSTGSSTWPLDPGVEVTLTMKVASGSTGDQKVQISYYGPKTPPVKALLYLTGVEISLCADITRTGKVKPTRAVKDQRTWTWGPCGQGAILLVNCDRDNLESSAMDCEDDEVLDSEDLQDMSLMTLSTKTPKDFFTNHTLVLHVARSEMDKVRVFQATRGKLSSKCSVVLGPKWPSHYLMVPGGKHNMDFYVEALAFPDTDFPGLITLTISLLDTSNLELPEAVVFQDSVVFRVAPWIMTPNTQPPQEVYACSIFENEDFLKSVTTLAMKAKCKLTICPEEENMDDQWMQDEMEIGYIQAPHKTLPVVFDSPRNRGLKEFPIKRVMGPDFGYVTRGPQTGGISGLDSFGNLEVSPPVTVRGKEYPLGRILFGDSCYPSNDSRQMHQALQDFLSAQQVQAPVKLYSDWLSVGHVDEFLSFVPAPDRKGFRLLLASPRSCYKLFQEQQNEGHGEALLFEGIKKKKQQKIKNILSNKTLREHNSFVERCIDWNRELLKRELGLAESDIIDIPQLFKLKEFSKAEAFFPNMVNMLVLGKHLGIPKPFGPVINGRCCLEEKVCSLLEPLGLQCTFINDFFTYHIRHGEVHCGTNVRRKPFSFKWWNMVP
Test: cell-based or functional assay
Numbered stars: 1 amine (or outer) side, 2 acyl side, 3 side chain; on linkers, the order of the positions; unused ones are H or OH. Square brackets hold non-standard residues; d marks the D form. Orn(CA) = ornithine chloroamidine, O(CA), N=C(CCl)NCCC[C@H](N[*:1])C(=O)[*:2]; Orn(fluoroacetimidoyl) = N=C(CF)NCCC[C@H](N)C(=O)O
MEASURED METRIC: conversion of 0708-30 by PAD4, 50 µM inhibitor (%)
Provide only the numeric value, understood in %.

Study these solved cases before continuing.
BINDER | UNIT ABBREVIATION | RESULT
Ac-FFDSKHFD[Orn(fluoroacetimidoyl)]EWIWSD-NH2 (SMILES CC[C@H](C)[C@H](NC(=O)[C@H](Cc1c[nH]c2ccccc12)NC(=O)[C@H](CCC(=O)O)NC(=O)[C@H](CCCNC(=N)CF)NC(=O)[C@H](CC(=O)O)NC(=O)[C@H](Cc1ccccc1)NC(=O)[C@H](Cc1c[nH]cn1)NC(=O)[C@H](CCCCN)NC(=O)[C@H](CO)NC(=O)[C@H](CC(=O)O)NC(=O)[C@H](Cc1ccccc1)NC(=O)[C@H](Cc1ccccc1)NC(C)=O)C(=O)N[C@@H](Cc1c[nH]c2ccccc12)C(=O)N[C@@H](CO)C(=O)N[C@@H](CC(=O)O)C(N)=O) [0741-01FA] | % | 24
Ac-FFDSHKLH[Orn(CA)]EWMWSD-NH2 (SMILES CSCC[C@H](NC(=O)[C@H](Cc1c[nH]c2ccccc12)NC(=O)[C@H](CCC(=O)O)NC(=O)[C@H](CCCNC(=N)CCl)NC(=O)[C@H](Cc1c[nH]cn1)NC(=O)[C@H](CC(C)C)NC(=O)[C@H](CCCCN)NC(=O)[C@H](Cc1c[nH]cn1)NC(=O)[C@H](CO)NC(=O)[C@H](CC(=O)O)NC(=O)[C@H](Cc1ccccc1)NC(=O)[C@H](Cc1ccccc1)NC(C)=O)C(=O)N[C@@H](Cc1c[nH]c2ccccc12)C(=O)N[C@@H](CO)C(=O)N[C@@H](CC(=O)O)C(N)=O) [0741-04CA] | % | 55
Ac-DSKKHD[Orn(CA)]DFLYSD-NH2 (SMILES CC(=O)N[C@@H](CC(=O)O)C(=O)N[C@@H](CO)C(=O)N[C@@H](CCCCN)C(=O)N[C@@H](CCCCN)C(=O)N[C@@H](Cc1c[nH]cn1)C(=O)N[C@@H](CC(=O)O)C(=O)N[C@@H](CCCNC(=N)CCl)C(=O)N[C@@H](CC(=O)O)C(=O)N[C@@H](Cc1ccccc1)C(=O)N[C@@H](CC(C)C)C(=O)N[C@@H](Cc1ccc(O)cc1)C(=O)N[C@@H](CO)C(=O)N[C@@H](CC(=O)O)C(N)=O) [0741-06CA] | % | 64
Ac-DSKKHD[Orn(fluoroacetimidoyl)]DFLYSD-NH2 (SMILES CC(=O)N[C@@H](CC(=O)O)C(=O)N[C@@H](CO)C(=O)N[C@@H](CCCCN)C(=O)N[C@@H](CCCCN)C(=O)N[C@@H](Cc1c[nH]cn1)C(=O)N[C@@H](CC(=O)O)C(=O)N[C@@H](CCCNC(=N)CF)C(=O)N[C@@H](CC(=O)O)C(=O)N[C@@H](Cc1ccccc1)C(=O)N[C@@H](CC(C)C)C(=O)N[C@@H](Cc1ccc(O)cc1)C(=O)N[C@@H](CO)C(=O)N[C@@H](CC(=O)O)C(N)=O) [0741-06FA] | % | 43

For the next question, use this binder.
Query: Please give the measured conversion of 0708-30 by PAD4, 50 µM inhibitor for this binder: Ac-DSHKFD[Orn(CA)]DFIYSD-NH2 (SMILES CC[C@H](C)[C@H](NC(=O)[C@H](Cc1ccccc1)NC(=O)[C@H](CC(=O)O)NC(=O)[C@H](CCCNC(=N)CCl)NC(=O)[C@H](CC(=O)O)NC(=O)[C@H](Cc1ccccc1)NC(=O)[C@H](CCCCN)NC(=O)[C@H](Cc1c[nH]cn1)NC(=O)[C@H](CO)NC(=O)[C@H](CC(=O)O)NC(C)=O)C(=O)N[C@@H](Cc1ccc(O)cc1)C(=O)N[C@@H](CO)C(=O)N[C@@H](CC(=O)O)C(N)=O) [0741-05CA]
Result: 34
